# System: Rattus norvegicus
# assay.comment: Volume of distribution at steady state in Zucker diabetic fatty rat at 5 mg/kg, iv
# Format: ADME, organism-based
# Parameters: dose 5 mg/kg, route intravenous
# assay.context: in vivo

{"line.notation": "O=C(NCc1ccc(Cl)s1)c1ccc2[nH]c(-c3ccc(C(=O)c4ccccc4C(F)(F)F)cc3)nc2c1", "Vdss, L/kg": 1.7}

* * *

compounds and their reported pIC50
# target.system: Stearoyl-CoA desaturase (Homo sapiens, UniProt O00767)
# Sequence (O00767 whole entry): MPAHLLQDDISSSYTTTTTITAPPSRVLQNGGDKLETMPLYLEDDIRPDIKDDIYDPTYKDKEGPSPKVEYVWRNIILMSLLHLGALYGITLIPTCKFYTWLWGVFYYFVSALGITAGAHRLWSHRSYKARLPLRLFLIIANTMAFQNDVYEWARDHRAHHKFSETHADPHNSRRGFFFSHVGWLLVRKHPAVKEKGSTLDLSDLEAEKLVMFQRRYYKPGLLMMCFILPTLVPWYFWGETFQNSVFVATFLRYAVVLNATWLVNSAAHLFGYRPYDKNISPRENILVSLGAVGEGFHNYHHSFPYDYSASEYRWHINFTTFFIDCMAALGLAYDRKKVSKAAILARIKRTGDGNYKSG
# assay.comment: Inhibition of SCD1 in human HepG2 cells
# Format: cell-based
pIC50: −log10 of the molar value.

{"compound": "O=C(NCCC1CC1)c1ccc2nc(-c3ccc(Oc4ccccc4Cl)cc3)[nH]c2c1", "pIC50": 5.63}
{"compound": "O=C(NCc1nccs1)c1ccc2[nH]c(-c3ccc(Oc4ccccc4C(F)(F)F)cc3)nc2c1", "pIC50": 6.50}
{"compound": "OC(c1ccc2[nH]c(-c3ccc(OCc4ccccc4)cc3)nc2c1)c1ccccc1C(F)(F)F (racemic)", "pIC50": 6.53}
{"compound": "O=C(NCc1ccc(Cl)s1)c1ccc2nc(-c3ccc(Oc4ccccc4Cl)cc3)[nH]c2c1", "pIC50": 5.87}
{"compound": "O=C(NCc1ccc(Cl)s1)c1ccc2[nH]c(-c3ccc(C(=O)c4ccccc4C(F)(F)F)cc3)nc2c1", "pIC50": 6.80}
{"compound": "O=C(NCc1ccc(Cl)s1)c1ccc2nc(-c3ccc(Oc4ccccc4C(F)(F)F)cc3)[nH]c2c1", "pIC50": 6.36}
{"compound": "O=C(NCc1nccs1)c1ccc2[nH]c(-c3ccc(C(=O)c4ccccc4C(F)(F)F)cc3)nc2c1", "pIC50": 6.75}
{"compound": "O=C(NCc1nccs1)c1ccc2nc(-c3ccc(Oc4ccccc4Cl)cc3)[nH]c2c1", "pIC50": 5.94}

* * *

# assay.comment: Plasma clearance in Zucker diabetic fatty rat at 5 mg/kg, iv
# Type: ADME, organism-based
# Parameters: dose 5 mg/kg, route intravenous

{"line.notation": "O=C(NCc1ccc(Cl)s1)c1ccc2[nH]c(-c3ccc(C(=O)c4ccccc4C(F)(F)F)cc3)nc2c1", "measure.unit": "mL/min/kg", "clearance": 4.17}

* * *

Overview of reported metabolised across a group of molecules:
# assay.comment: Drug metabolism in human in presence of ketoconazole
# Assay type: ADME, organism-based
# assay.context: in vivo, with ketoconazole, read-out: Drug metabolism

{"molecule": "OC(c1ccc2[nH]c(-c3ccc(OCc4ccccc4)cc3)nc2c1)c1ccccc1C(F)(F)F (racemic)", "metabolised": "46%"}
{"molecule": "O=C(NCc1ccc(Cl)s1)c1ccc2[nH]c(-c3ccc(C(=O)c4ccccc4C(F)(F)F)cc3)nc2c1", "metabolised": "10%"}
{"molecule": "O=C(NCc1nccs1)c1ccc2nc(-c3ccc(Oc4ccccc4Cl)cc3)[nH]c2c1", "metabolised": "16%"}
{"molecule": "O=C(NCc1ccc(Cl)s1)c1ccc2nc(-c3ccc(Oc4ccccc4Cl)cc3)[nH]c2c1", "metabolised": "41%"}
{"molecule": "O=C(NCCC1CC1)c1ccc2nc(-c3ccc(Oc4ccccc4Cl)cc3)[nH]c2c1", "metabolised": "45%"}

* * *

# assay.comment: Oral bioavailability in Zucker diabetic fatty rat at 30 mg/kg
# Assay type: ADME, organism-based
# assay.context: in vivo
property.measured: bioavailability (%)

{"line.notation": "O=C(NCc1ccc(Cl)s1)c1ccc2[nH]c(-c3ccc(C(=O)c4ccccc4C(F)(F)F)cc3)nc2c1", "quantitative.result": 25}
